# Tested on: HIV-1 (H9IIIB strain)
# assay_remarks: Cell-Based HIV Infection Assay Using a Reporter (MT4-GFP cells)
# condition_label: Human immunodeficiency virus 1, inflection point (IP) of viral growth inhibition; MT4-GFP cells infected with HIV-1 H9IIIB; 50% normal human serum; mean of at least two independent experiments; read-out: Cell Based IP (50% NHS)
# Method: Cell-Based HIV Infection Assay Using a Reporter (“Cell-Based”): MT4-GFP cells contain a stably integrated HIV long terminal repeat promoter directing the transcription of green fluorescent protein (GFP). […] Infected cells were quantified at both 24 and 48 h post incubation using an Acumen eX3 plate reader. Viral reproductive ratio (R0) was determined using the number of infected cells at 48 h divided by the number of infected cells at 24 h. […]
Overview of recorded pEC50 for various molecules
In textbook form, pEC50 equals minus log to base ten of the concentration in mol/L.

Look over these answered cases.
[[record]]
molecule = "COC(=O)N[C@H](C(=O)Nc1cccc(F)c1CC[C@H]1CNC2CCCS(=O)(=O)N1C2)C1(c2ccc(Cl)cc2)CCOCC1 (some centres unmarked) [Example 42]"
value_reported = 7.51

[[record]]
molecule = "N[C@H](C(=O)N[C@H]1CCC[C@@H]1CC[C@H]1CN[C@@H]2CCCS(=O)(=O)N1C2)[C@@H](c1ccc(Cl)cc1)C1CCS(=O)(=O)CC1 [Example 157]"
value_reported = 5.47


(Q) Consider the molecule COC(=O)N[C@H](C(=O)Nc1cccc(F)c1CCC1CNC2CCCS(=O)(=O)N1C2)[C@@H](c1ccc(Cl)cc1)C1CCOC(CC(F)(F)F)C1 (some centres unmarked) [Example 172] and give its recorded pEC50.
(A) 7.42

(Q) Please give the documented pEC50 of N[C@H](C(=O)Nc1cccc(F)c1CCC1CNC2CCCS(=O)(=O)N1C2)[C@@H](c1ccc(F)cc1)c1ccc(C(F)(F)F)cc1 (some centres unmarked) [Example 33]
(A) 8.07

(Q) Give a short answer stating reported pEC50 for COC(=O)N[C@H](C(=O)N[C@H]1CCCC[C@@H]1CC[C@H]1CN[C@@H]2CCCS(=O)(=O)N1C2)[C@@H](c1ccc(Cl)cc1)C1CCOCC1 [Example 25] .
(A) 7.39

(Q) Could you please provide reported pEC50 for N[C@H](C(=O)Nc1cccc(F)c1CCC1CNC2CCCS(=O)(=O)N1C2)[C@H](CCC1CCOCC1)c1ccc(Cl)c(F)c1 (some centres unmarked) [Example 74] ? Thanks!
(A) 6.82

---

# Test system: HIV-1 (H9IIIB strain)
# assay_remarks: Cell-Based HIV Infection Assay Using a Reporter (MT4-GFP cells)
# condition_label: Human immunodeficiency virus 1, inflection point (IP) of viral growth inhibition; MT4-GFP cells infected with HIV-1 H9IIIB; 50% normal human serum; mean of at least two independent experiments; read-out: Cell Based IP (50% NHS)
assay_metric: EC50 (nM)
Could you give me the number in nM? Just the number is fine.

[[record]]
smiles_str = "COC(=O)N[C@H](C(=O)Nc1cccc(F)c1CC[C@H]1CN[C@@H]2CCCS(=O)(=O)N1C2)C1(c2ccc(Cl)cc2)CCN(S(C)(=O)=O)CC1"
value_reported = 120

[[record]]
smiles_str = "N[C@H](C(=O)Nc1cccc(F)c1CC[C@H]1CN[C@@H]2CCCS(=O)(=O)N1CC2)[C@@H](c1ccc(F)cc1)c1cc(F)cc(F)c1"
value_reported = 6.1


(Q) Consider the molecule `N[C@H](C(=O)N[C@H]1CCCC[C@@H]1CC[C@H]1CN[C@@H]2CCCS(=O)(=O)N1C2)[C@H](c1cncc(C(F)(F)F)c1)c1ccc(Cl)c(F)c1` tested on HIV-1 (H9IIIB strain); state its EC50.
(A) 22

---

# System: HIV-1 (H9IIIB strain)
# assay_remarks: Cell-Based HIV Infection Assay Using a Reporter (MT4-GFP cells)
# condition_label: Human immunodeficiency virus 1, inflection point (IP) of viral growth inhibition; MT4-GFP cells infected with HIV-1 H9IIIB; 50% normal human serum; mean of at least two independent experiments; read-out: Cell Based IP (50% NHS)
# Experimental: Cell-Based HIV Infection Assay Using a Reporter (“Cell-Based”): MT4-GFP cells contain a stably integrated HIV long terminal repeat promoter directing the transcription of green fluorescent protein (GFP). […] Infected cells were quantified at both 24 and 48 h post incubation using an Acumen eX3 plate reader. Viral reproductive ratio (R0) was determined using the number of infected cells at 48 h divided by the number of infected cells at 24 h. […]
Labelling field: enter 1 if recorded EC50 is less than 20 nM. Enter 0 if it equals or exceeds that cut-off.

[[record]]
compound = "COC(=O)N[C@H](C(=O)Nc1cccc(F)c1CC[C@H]1CN[C@@H]2CCCS(=O)(=O)N1C2)[C@@H](c1ccc(Cl)cc1)c1csc(C(F)(F)F)n1"
qualitative_label = 1

[[record]]
compound = "COCCN[C@H](C(=O)N[C@H]1CCC[C@@H]1CC[C@H]1CN[C@@H]2CCCS(=O)(=O)N1C2)[C@@H](c1ccc(Cl)cc1)C1CCOC(C)(C)C1 (stereo partly drawn)"
qualitative_label = 0

[[record]]
compound = "CC(C)[C@H](c1ccc(Cl)cc1)[C@H](N)C(=O)Nc1cncc(F)c1CC[C@H]1CN[C@@H]2CCCS(=O)(=O)N1C2"
qualitative_label = 1

[[record]]
compound = "COC(=O)N[C@H](C(=O)Nc1cccc(F)c1CCC1CNC2CCCS(=O)(=O)N1C2)[C@H](c1ccc(F)cc1)C1CCC(F)(F)CC1 (stereo partly drawn)"
qualitative_label = 0


Please find the next compound below.
(Q) EC50 under 20 nM? Item: CC1(C)CC([C@H](c2ccc(Cl)cc2)[C@H](NCC2CC2)C(=O)N[C@H]2CCC[C@@H]2CC[C@H]2CN[C@@H]3CCCS(=O)(=O)N2C3)CCO1 (stereo partly drawn)
(A) 0

---

# Tested on: HIV-1 (H9IIIB strain)
# assay_remarks: Cell-Based HIV Infection Assay Using a Reporter (MT4-GFP cells)
# condition_label: Human immunodeficiency virus 1, inflection point (IP) of viral growth inhibition; MT4-GFP cells infected with HIV-1 H9IIIB; 50% normal human serum; mean of at least two independent experiments; read-out: Cell Based IP (50% NHS)
// returns NOT MET unless EC50 is strictly below 20 nM, in which case MET

[[record]]
molecule = "CO[C@H]1CC[C@](c2ccc(F)cc2)([C@H](N)C(=O)Nc2cccc(F)c2CC[C@H]2CN[C@@H]3CCCS(=O)(=O)N2C3)CC1"
qualitative_label = "NOT MET"

[[record]]
molecule = "N[C@H](C(=O)Nc1cccc(F)c1CCC1CNC2CCCS(=O)(=O)N1C2)[C@H](c1ccc(F)cc1)C1CCC(F)(F)CC1 (stereo partly drawn)"
qualitative_label = "NOT MET"

[[record]]
molecule = "COC(=O)N[C@H](C(=O)Nc1cccc(F)c1CCC1CNC2CCCS(=O)(=O)N1C2)[C@@H](c1ccc(F)cc1)c1ccc(C2CC2)cc1 (stereo partly drawn)"
qualitative_label = "MET"

[[record]]
molecule = "C[C@@H]1C[C@](c2ccc(Cl)cc2)([C@H](N)C(=O)N[C@H]2CCCC[C@@H]2CC[C@H]2CN[C@@H]3CCCS(=O)(=O)N2C3)C[C@H](C)O1"
qualitative_label = "NOT MET"


Then this molecule:
(Q) Given COC(=O)N[C@H](C(=O)Nc1cccc(F)c1CCC1CNC2CCCS(=O)(=O)N1C2)[C@H](c1ccnc(OC)c1)c1ccc(Cl)c(F)c1 (stereo partly drawn) , is recorded EC50 strictly lower than 20 nM?
(A) MET

---

# Tested on: HIV-1 (H9IIIB strain)
# assay_remarks: Cell-Based HIV Infection Assay Using a Reporter (MT4-GFP cells)
# condition_label: Human immunodeficiency virus 1, inflection point (IP) of viral growth inhibition; MT4-GFP cells infected with HIV-1 H9IIIB; 50% normal human serum; mean of at least two independent experiments; read-out: Cell Based IP (50% NHS)
# Experimental: Cell-Based HIV Infection Assay Using a Reporter (“Cell-Based”): MT4-GFP cells contain a stably integrated HIV long terminal repeat promoter directing the transcription of green fluorescent protein (GFP). […] Infected cells were quantified at both 24 and 48 h post incubation using an Acumen eX3 plate reader. Viral reproductive ratio (R0) was determined using the number of infected cells at 48 h divided by the number of infected cells at 24 h. […]
assay_metric: EC50

[[record]]
compound = "COC(=O)N[C@H](C(=O)N[C@H]1CCC[C@@H]1CC[C@H]1CN[C@@H]2CCCS(=O)(=O)N1C2)[C@@H](c1ccc(F)cc1)C1CCOC(C)(C)C1 (stereo partly drawn) [Example 50]"
value_reported = "28 nM"

[[record]]
compound = "N[C@H](C(=O)Nc1cc(F)cc(F)c1CC[C@H]1CN[C@@H]2CCCS(=O)(=O)N1C2)[C@@H](c1ccc(Cl)cc1)C1CCOCC1 [Example 143]"
value_reported = "77 nM"


// below: EC50 requested for another compound
(Q) Check the records and state EC50 for C[C@@H]1C[C@H]([C@H](c2ccc(F)cc2)[C@H](N)C(=O)N[C@H]2CCCC[C@@H]2CC[C@H]2CN[C@@H]3CCCS(=O)(=O)N2C3)C[C@H](C)O1 [Example 149]
(A) 97 nM

All values here come from patent US10138255B2.
